# SUBJECT_OF_TEST: Alpha-bungarotoxin (Bungarus multicinctus) (UniProt P60615)
# Sequence (P60615 whole entry, looked up): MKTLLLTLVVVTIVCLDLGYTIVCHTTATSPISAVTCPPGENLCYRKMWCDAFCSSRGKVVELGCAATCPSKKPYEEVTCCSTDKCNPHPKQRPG
# ASSAY_PROTOCOL: alpha-bungarotoxin binders on microarray, profiling panel, artefact control for SMM control protein annotation, biochemical, small-molecule microarray, Alexa647 label, 635/667 nm fluorescence (AID 1117)
# CONDITION_LABEL: alpha-BTX-A647 binding fluorescence, higher = more signal
Decide by composite z-score: equal to or exceeding 0.7 means y, less means n.

>  <MOLECULE>
C[C@H]1C2=C3C(CC[C@H]4C(OCc5ccc(F)cc5C(F)(F)F)OC[C@](C)([C@@H]34)N(C(=O)OC(C)(C)C)C2)C(CO)C1CO (some centres undefined)

>  <CLASS_NAME>
n

$$$$
>  <MOLECULE>
COC(=O)C[C@H]1O[C@]2(C(=O)N(C)c3ccccc32)[C@@H](C)[C@@H]1[Si](C)(C)c1ccc(C)cc1

>  <CLASS_NAME>
n

$$$$
>  <MOLECULE>
CN(C)C(=O)[C@@]1(Cc2ccccc2N=[N+]=[N-])COC(c2ccc(OCCCO)cc2)=N1

>  <CLASS_NAME>
y

$$$$
>  <MOLECULE>
C=C(COC)/C(=C/C[C@@H](OC(=O)c1ccncc1)c1ccc(CO)o1)c1cnc2ccccc2c1

>  <CLASS_NAME>
y

$$$$
>  <MOLECULE>
C[n+]1ccc(CCCO)cc1

>  <CLASS_NAME>
n

$$$$
>  <MOLECULE>
C=C(CCCC)C(=O)CC[C@@H](OC(=O)c1ccccc1-c1ccccc1C(=O)O)c1cccc(OCCO)c1

>  <CLASS_NAME>
n

$$$$
>  <MOLECULE>
CCCN1C(=O)[C@]2(Cc3ccccc3)N=C(c3ccc(OCCCO)cc3)O[C@@H]2c2ccccc21

>  <CLASS_NAME>
y

$$$$
>  <MOLECULE>
COCCOC(=O)N1C(=O)[C@@]2(c3cc(C#CC4(O)CCCCCC4)ccc31)[C@H](C(N)=O)[C@H]1C(=O)O[C@H](c3ccccc3)[C@H](c3ccccc3)N1[C@@H]2c1ccccc1OCCO

>  <CLASS_NAME>
y

$$$$
>  <MOLECULE>
C[C@@H]1ON(c2ccc(C(=O)OC(C)(C)C)cc2)[C@H](c2ccc(Br)cc2)[C@H]1C(=O)N1C(=O)OC[C@H]1Cc1ccccc1

>  <CLASS_NAME>
n

$$$$
>  <MOLECULE>
C=CC[C@@]1(C(=O)N2CCCCC2)N=C(c2ccc(OCCCO)cc2)O[C@@H]1c1ccccc1

>  <CLASS_NAME>
n

$$$$
>  <MOLECULE>
C=C(/C(=C/C[C@@H](OC(=O)c1ccncc1)c1ccc(OCCO)cc1)c1cc(C(=O)OC)ccc1OC)C(C)C

>  <CLASS_NAME>
n

$$$$
>  <MOLECULE>
C=CCOC(=O)[C@H]1[C@@H]2C(=O)O[C@@H](c3ccccc3)[C@@H](c3ccccc3)N2[C@@H](c2ccc(OCCOC(=O)[C@H]3C[C@H]4C(=O)N[C@@H](Cc5ccccc5)C(=O)N4[C@H]3c3cccc(OCCO)c3)cc2)[C@]12C(=O)Nc1ccc(I)cc12

>  <CLASS_NAME>
y

$$$$
>  <MOLECULE>
COCCOC(=O)N1C(=O)[C@@]2(c3cc(C#Cc4ccc(OC)cc4)ccc31)[C@H](C(=O)NC[C@H](O)c1ccccc1)[C@H]1C(=O)O[C@H](c3ccccc3)[C@H](c3ccccc3)N1[C@@H]2c1ccc(O)cc1

>  <CLASS_NAME>
y

$$$$
>  <MOLECULE>
COC(=O)C(CC#Cc1ccc2c(c1)[C@]1(C(=O)N2)[C@H](C(=O)O)[C@H]2C(=O)O[C@H](c3ccccc3)[C@H](c3ccccc3)N2[C@@H]1c1ccccc1OCCO)C(=O)OC

>  <CLASS_NAME>
y

$$$$

* * *

Recorded z-score by entry
# ASSAY_PROTOCOL: HepG2 liver cancer cell viability effects, profiling panel, resazurin fluorescence, 24 h, PK04 Diversity Set (AID 1172); note: test concentration not given here
# CONDITION_LABEL: higher = more signal

>  <SMILES_RECORD>
C=CCOC(=O)[C@@H]1[C@H]2C(=O)O[C@H](c3ccccc3)[C@H](c3ccccc3)N2[C@H](c2ccc(OCCOC(=O)[C@H]3C[C@H]4C(=O)N[C@@H](CCCCNC(C)=O)C(=O)N4[C@H]3c3cccc(OCCO)c3)cc2)[C@@]12C(=O)Nc1ccc(I)cc12

>  <z-score>
-0.299

$$$$
>  <SMILES_RECORD>
CC(C)C[C@@H]1NC(=O)[C@H]2C[C@@H](C(=O)NCCCCCC[N+](C)(C)C)[C@@H](c3cccc(OCCO)c3)N2C1=O

>  <z-score>
1.15

$$$$
>  <SMILES_RECORD>
O=C1c2ccccc2[C@](Cc2ccccc2I)(C(=O)NCCN2CCOCC2)[C@H](c2ccc(CO)cc2)N1Cc1ccccc1

>  <z-score>
-0.462

$$$$

* * *

Reported z-score by item:
# ASSAY_PROTOCOL: basal RPMI8226 viability, no added stimulus, profiling panel, cell-based, calcein-AM fluorescence, 48 h, PK04 Diversity Set (AID 1166);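 note: cells grown under basal conditions without added stimulus; test concentration not given here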
# CONDITION_LABEL: RPMI8226 myeloma viability, higher = more signal

>  <SMILES_RECORD>
COCCOC(=O)N1C(=O)[C@@]2(c3cc(C#CC4(O)CCCCCC4)ccc31)[C@H](c1ccccc1OCCO)N1[C@H](c3ccccc3)[C@H](c3ccccc3)OC(=O)[C@H]1[C@@H]2C(N)=O

>  <z-score>
-4.62

$$$$
>  <SMILES_RECORD>
CCOC(=O)C[C@H]1[C@H](OC(=O)c2ccccc2-c2ccccc2)[C@@H](NC(=O)CC(C)C)c2cc(OCCCO)ccc2N1C(=O)c1ccc2ccccc2n1

>  <z-score>
-2.05

$$$$
>  <SMILES_RECORD>
CCOC(=O)C[C@H]1[C@H](OC(=O)c2ccc(-c3ccccc3)cc2)[C@@H](NC(=O)c2ccc3ccccc3c2)c2cc(OCCCO)ccc2N1C(=O)c1ccc2ccccc2n1

>  <z-score>
-1.06

$$$$

* * *

# SUBJECT_OF_TEST: Follistatin-related protein 3 (Homo sapiens)
# ASSAY_PROTOCOL: FSTL3 binders on small-molecule microarrays, primary screen, biochemical, small-molecule microarray, 635 nm fluorescence (AID 1105);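 note: score merges emission near 667 nm and signal to noise per printed spot across three slides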
# CONDITION_LABEL: FSTL3 binding, higher = more signal
Measured composite z-score, listed per entry for reference.
OBSERVABLE: composite z-score

>  <COMPOUND>
C=CCC(OC(C)=O)[C@@H]1[C@@H](N(Cc2cc3ccccc3o2)C(=O)c2ccc(C)cc2)c2cc(OCCCO)ccc2N1C(=O)Cc1ccc2ccccc2c1 (some centres not stated)

>  <SUBJECT_OF_TEST>
Follistatin-related protein 3 (Homo sapiens)

>  <ASSAY_RESULT>
-0.32

$$$$
>  <COMPOUND>
COc1ccc([Si](C)(C)[C@H]2[C@H](CCn3cc([C@H](O)c4ccccc4)nn3)O[C@@]3(C(=O)N(Cc4ccc(N5CCOC5=O)cc4)c4ccccc43)[C@@H]2C)cc1

>  <SUBJECT_OF_TEST>
Follistatin-related protein 3 (Homo sapiens)

>  <ASSAY_RESULT>
-1.54

$$$$
>  <COMPOUND>
CCOC(=O)C1=CC[C@@H](c2ccccc2)N(S(=O)(=O)c2ccc(C)cc2)C1

>  <SUBJECT_OF_TEST>
Follistatin-related protein 3 (Homo sapiens)

>  <ASSAY_RESULT>
0.36

$$$$
>  <COMPOUND>
Cc1c(NC(=O)/C(C#N)=C/C=C/c2ccc(N(C)C)cc2)c(=O)n(-c2ccccc2)n1C

>  <SUBJECT_OF_TEST>
Follistatin-related protein 3 (Homo sapiens)

>  <ASSAY_RESULT>
0.788

$$$$
>  <COMPOUND>
O=C1NC(=O)C2C1C=CC(C(O)c1ccc(Br)cc1)N2Nc1ccccn1 (configuration not stated)

>  <SUBJECT_OF_TEST>
Follistatin-related protein 3 (Homo sapiens)

>  <ASSAY_RESULT>
0.28

$$$$
>  <COMPOUND>
[N-]=[N+]=Nc1ccccc1C[C@@]1(C(=O)O)N=C(c2ccc(OCCCO)cc2)O[C@@H]1c1ccccc1

>  <SUBJECT_OF_TEST>
Follistatin-related protein 3 (Homo sapiens)

>  <ASSAY_RESULT>
0.126

$$$$
>  <COMPOUND>
CCOC(=O)C[C@H]1[C@H](OC(=O)Cc2ccc3c(c2)OCO3)[C@@H](NC(=O)C2CCCCC2)c2cc(OCCCO)ccc2N1C(=O)c1ccc2ccccc2n1

>  <SUBJECT_OF_TEST>
Follistatin-related protein 3 (Homo sapiens)

>  <ASSAY_RESULT>
1.18

$$$$

* * *

This section presents molecules with their documented composite z-score values.
# SUBJECT_OF_TEST: Torsin-1A-interacting protein 2 (Homo sapiens)
# ASSAY_PROTOCOL: LULL1 binders on small-molecule microarray, primary screen, cell lysate, human LULL1 lysate, 635/667 nm fluorescence (AID 1092);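 note: probe is lysate of COS7 cells overexpressing human LULL1; score merges per-feature 667 nm fluorescence with signal-to-noise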
# CONDITION_LABEL: hLULL1 lysate binding, 635 nm fluorescence, higher = more signal

>  <SMILES_RECORD>
C=CCOC(=O)[C@@H]1[C@H]2C(=O)O[C@H](c3ccccc3)[C@H](c3ccccc3)N2[C@H](c2ccc(OCCOC(=O)[C@H]3C[C@H]4C(=O)N[C@@H](CCCCN(C)C)C(=O)N4[C@H]3c3cccc(OCCO)c3)cc2)[C@@]12C(=O)Nc1ccc(I)cc12

>  <SUBJECT_OF_TEST>
Torsin-1A-interacting protein 2 (Homo sapiens)

>  <composite z-score>
2.81

$$$$
>  <SMILES_RECORD>
COC(=O)[C@@]1(Cc2ccc(OC)cc2)[C@H]2c3cc(C(=O)N(C)C)n(CCc4c[nH]c5ccc(O)cc45)c3C[C@H]2CN1C(=O)c1ccccc1

>  <SUBJECT_OF_TEST>
Torsin-1A-interacting protein 2 (Homo sapiens)

>  <composite z-score>
3.36

$$$$
>  <SMILES_RECORD>
[N-]=[N+]=Nc1ccccc1[C@@H]1OC(c2ccc(OCCCO)cc2)=N[C@]1(CCS(=O)(=O)c1ccccc1)C(=O)NCCN1CCOCC1

>  <SUBJECT_OF_TEST>
Torsin-1A-interacting protein 2 (Homo sapiens)

>  <composite z-score>
3.15

$$$$
>  <SMILES_RECORD>
C=CCN1C(=O)[C@@]2(CCC(=O)OC(C)(C)C)N=C(c3ccc(OCCCO)cc3)O[C@H]2c2ccccc21

>  <SUBJECT_OF_TEST>
Torsin-1A-interacting protein 2 (Homo sapiens)

>  <composite z-score>
2.71

$$$$
>  <SMILES_RECORD>
C=CCOC(=O)[C@@H]1[C@H]2C(=O)O[C@H](c3ccccc3)[C@H](c3ccccc3)N2[C@H](c2ccc(OCCOC(=O)[C@H]3C[C@H]4C(=O)N[C@@H](CCCCNC(C)=O)C(=O)N4[C@H]3c3cccc(OCCO)c3)cc2)[C@@]12C(=O)Nc1ccc(I)cc12

>  <SUBJECT_OF_TEST>
Torsin-1A-interacting protein 2 (Homo sapiens)

>  <composite z-score>
1.78

$$$$
>  <SMILES_RECORD>
O=C1c2ccccc2[C@](Cc2ccccc2I)(C(=O)NCCN2CCOCC2)[C@H](c2ccc(CO)cc2)N1Cc1ccccc1

>  <SUBJECT_OF_TEST>
Torsin-1A-interacting protein 2 (Homo sapiens)

>  <composite z-score>
2.8

$$$$
>  <SMILES_RECORD>
CC(C)NC(=O)[C@@]1(C)c2ccccc2C(=O)N(C(C)C)[C@H]1c1ccc(CO)cc1

>  <SUBJECT_OF_TEST>
Torsin-1A-interacting protein 2 (Homo sapiens)

>  <composite z-score>
3.47

$$$$
>  <SMILES_RECORD>
COCCOC(=O)N1C(=O)[C@@]2(c3cc(C#Cc4ccc(OC)cc4)ccc31)[C@H](C(=O)N1CCN(c3ncccn3)CC1)[C@H]1C(=O)O[C@H](c3ccccc3)[C@H](c3ccccc3)N1[C@@H]2c1ccccc1OCCO

>  <SUBJECT_OF_TEST>
Torsin-1A-interacting protein 2 (Homo sapiens)

>  <composite z-score>
2.17

$$$$
>  <SMILES_RECORD>
[N-]=[N+]=Nc1ccccc1C[C@]1(C(=O)NCc2ccccc2)N=C(c2ccc(OCCCO)cc2)O[C@H]1c1ccccc1

>  <SUBJECT_OF_TEST>
Torsin-1A-interacting protein 2 (Homo sapiens)

>  <composite z-score>
3.34

$$$$
>  <SMILES_RECORD>
O=C1O[C@@H](c2ccccc2)[C@@H](c2ccccc2)N2[C@@H](c3ccccc3OCCO)[C@]3(C(=O)Nc4ccccc43)[C@@H](C(=O)NC[C@H](O)c3ccccc3)[C@H]12

>  <SUBJECT_OF_TEST>
Torsin-1A-interacting protein 2 (Homo sapiens)

>  <composite z-score>
2.69

$$$$
>  <SMILES_RECORD>
C=CCNC(=O)[C@@H]1[C@H]2C(=O)O[C@H](c3ccccc3)[C@H](c3ccccc3)N2[C@H](c2ccccc2OCCO)[C@@]12C(=O)N(C(=O)OCCOC)c1ccc(C#CC3=CCCCC3)cc12

>  <SUBJECT_OF_TEST>
Torsin-1A-interacting protein 2 (Homo sapiens)

>  <composite z-score>
2.31

$$$$
>  <SMILES_RECORD>
[N-]=[N+]=Nc1ccccc1[C@H]1OC(c2ccc(OCCCO)cc2)=N[C@@]1(CCS(=O)(=O)c1ccccc1)C(=O)N1CCCCC1

>  <SUBJECT_OF_TEST>
Torsin-1A-interacting protein 2 (Homo sapiens)

>  <composite z-score>
3.16

$$$$
